Entry source: patent US20230089368A1

test system: muscle progenitors (hMP) from DMD hiPSC or WT hiPSC; assay: Myotube assay: myogenic activity (total myotube area per well); assay type: cell-based, human; conditions: Homo sapiens, 72 h; myotube assay, compounds incubated 3 days; read-out: MA (normalized Myotube Area, efficacy)
measurement-kind: Emax

# example entries with known answers
Suppose we examine the compound CC(C)(C)c1cc(NC(=O)Nc2ccc(Oc3ccnc4[nH]c(=O)cnc34)cc2C(F)(F)F)n(-c2ccccc2)n1 ; what Emax value has been reported?
≥ 75%

Suppose we examine the compound CNC(=O)c1cc(Oc2ccc(NC(=O)Nc3cc(C(C)(C)C)nn3-c3ccc4ncccc4c3)c(SC)c2)ccn1 ; what Emax value has been reported?
≥ 75%

Suppose we examine the compound CSc1cc(Oc2ccnc3[nH]c(=O)cnc23)ccc1NC(=O)Nc1cc(C(C)(C)C)nn1-c1ccc(CN2CCOCC2)cc1 ; what Emax value has been reported?
≥ 75%

Next up:
Suppose we examine the compound CNC(=O)c1cc(Oc2cccc(NC(=O)Nc3cc(C(C)(C)C)nn3-c3ccccc3)c2)ccn1 ; what Emax value has been reported?
50 to 75%
